- Study System: T1, human Claudin 3 (human, UniProt O15551 1-220)
- T1 construct: whole, on cells; also called CLDN3
- T1 sequence (looked up): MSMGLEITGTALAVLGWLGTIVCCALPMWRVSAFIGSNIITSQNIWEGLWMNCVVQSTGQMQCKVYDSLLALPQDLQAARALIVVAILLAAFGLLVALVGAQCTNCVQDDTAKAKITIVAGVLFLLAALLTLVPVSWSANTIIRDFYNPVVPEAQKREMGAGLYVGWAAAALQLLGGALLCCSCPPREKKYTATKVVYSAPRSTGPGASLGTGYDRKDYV
- Measurement Notes: flow cytometry, CHOK1/H_CLDN3 cells, Ab titrated from 100 nM
Measured Endpoint: Top MFI
Could you keep your reply to the number by itself?

// Top MFI lookup, key: 97-C10E1-2-P1.z12 (antibody, V domains shown) VH: QVQLQQSGAEVKKPGASMKISCKASGYAFTGYTMNWVRQAPGQNLEWIGLSNPYNAGTIYNQKFKGRATLTVDKSTSTAYMELLSLRSEDTAVYYCARNYYYGSSYAYYYAMDYWGQGTTVTVSS VL: EAVVTQSPATLSVSPGERATLSCRSSTGAVTTSNYANWVQEKPGQAFRGLIGGTNNRAPGIPARFSGSLSGDEATLTISSLQSEDFAVYFCALWYSNHWVFGGGTKVEIK
130

// Top MFI lookup, key: 97-C10E1-2-P1.z9 (antibody, V domains shown) VH: QVQLQQSGAEVKKPGASVKVSCKASGYAFTGYTMNWVRQAPGQNLEWIGLSNPYNAGTIYNQKFKGRVTLTVDKSTSTVYMELLSLRSEDTAVYYCARNYYYGSSYAYYYAMDYWGQGTTVTVSS VL: DAQMTQSPSSLSASVGDRVTITCRSSTGAVTTSNYANWVQQKPGKAFKGLIGGTNNRAPGVPARFSGSLSGTDAALTISSLQPEDFATYFCALWYSNHWVFGGGTKVEIK
297

// Top MFI lookup, key: 97-C10E1-2-P1.z7 (antibody, V domains shown) VH: QVQLQQSGAEVKKPGASVKVSCKASGYAFTGYTMNWVRQAPGQNLEWIGLSNPYNAGTIYNQKFKGRVTLTVDKSTSTVYMELLSLRSEDTAVYYCARNYYYGSSYAYYYAMDYWGQGTTVTVSS VL: EAVVTQSPATLSVSPGERATLSCRSSTGAVTTSNYANWVQEKPGQAFRGLIGGTNNRAPGIPARFSGSLSGDEATLTISSLQSEDFAVYFCALWYSNHWVFGGGTKVEIK
249

// Top MFI lookup, key: 97-C10E1-2-P1.z2 (antibody, V domains shown) VH: QVQLVQSGAEVKKPGASVKVSCKASGYAFTGYTMNWVRQAPGQGLEWIGLSNPYNAGTIYNQKFKGRVTMTVDKSTSTVYMELSSLRSEDTAVYYCARNYYYGSSYAYYYAMDYWGQGTTVTVSS VL: EAVVTQSPATLSVSPGERATLSCRSSTGAVTTSNYANWVQEKPGQAFRGLIGGTNNRAPGIPARFSGSLSGDEATLTISSLQSEDFAVYFCALWYSNHWVFGGGTKVEIK
247

// Top MFI lookup, key: 97-C10E1-2-P1.z1 (antibody, V domains shown) VH: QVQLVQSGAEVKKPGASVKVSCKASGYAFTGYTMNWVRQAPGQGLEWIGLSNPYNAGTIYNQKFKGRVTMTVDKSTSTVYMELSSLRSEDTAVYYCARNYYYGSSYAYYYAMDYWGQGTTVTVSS VL: EAVMTQSPATLSVSPGERATLSCRSSTGAVTTSNYANWVQQKPGQAPRLLIGGTNNRAPGIPARFSGSGSGDEATLTISSLQSEDFAVYFCALWYSNHWVFGGGTKVEIK
136

// Top MFI lookup, key: 97-C10E1-2-P1.z6 (antibody, V domains shown) VH: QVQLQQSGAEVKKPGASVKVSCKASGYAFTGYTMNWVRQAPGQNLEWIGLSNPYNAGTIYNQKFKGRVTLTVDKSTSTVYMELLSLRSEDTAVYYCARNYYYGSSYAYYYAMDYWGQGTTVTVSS VL: EAVMTQSPATLSVSPGERATLSCRSSTGAVTTSNYANWVQQKPGQAPRLLIGGTNNRAPGIPARFSGSGSGDEATLTISSLQSEDFAVYFCALWYSNHWVFGGGTKVEIK
139

// Top MFI lookup, key: 97-C10E1-2-P1.z14 (antibody, V domains shown) VH: QVQLQQSGAEVKKPGASMKISCKASGYAFTGYTMNWVRQAPGQNLEWIGLSNPYNAGTIYNQKFKGRATLTVDKSTSTAYMELLSLRSEDTAVYYCARNYYYGSSYAYYYAMDYWGQGTTVTVSS VL: DAQMTQSPSSLSASVGDRVTITCRSSTGAVTTSNYANWVQQKPGKAFKGLIGGTNNRAPGVPARFSGSLSGTDAALTISSLQPEDFATYFCALWYSNHWVFGGGTKVEIK
158

// Top MFI lookup, key: 97-C10E1-2-P1.z11 (antibody, V domains shown) VH: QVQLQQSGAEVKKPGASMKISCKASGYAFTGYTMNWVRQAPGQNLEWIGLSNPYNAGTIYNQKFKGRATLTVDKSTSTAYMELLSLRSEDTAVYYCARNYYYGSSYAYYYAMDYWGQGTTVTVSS VL: EAVMTQSPATLSVSPGERATLSCRSSTGAVTTSNYANWVQQKPGQAPRLLIGGTNNRAPGIPARFSGSGSGDEATLTISSLQSEDFAVYFCALWYSNHWVFGGGTKVEIK
118
